Recorded Log k' values for a group of molecules are listed next.
Measured Quantity: Log k'

1. O=C(NC1CCN(CCc2c[nH]c3ccccc23)CC1)c1ccccc1 :: 0.536
2. CCN(CC)CCOc1ccc2c(c1)C(=O)c1cc(OCCN(CC)CC)ccc1-2 :: 0.701
3. CN1CCC(=C2c3ccccc3C=Cc3ccccc32)CC1 :: 1.715
4. CN(C)CCC=C1c2ccccc2COc2ccccc21 [DOXEPIN] :: 1.025
5. CN(C)CCCN1c2ccccc2CCc2ccccc21 :: 1.145
6. CN(C)CCC=C1c2ccccc2CCc2ccccc21 :: 1.419

====

Below, each entry is listed with its recorded Log k'.
Measured Quantity: Log k'

1. CN(C)CCCN1c2ccccc2CCc2ccc(Cl)cc21 :: 1.593
2. CN1CCN(CCCN2c3ccccc3Sc3ccc(C(F)(F)F)cc32)CC1 :: 2.58
3. CCC(=O)O[C@](Cc1ccccc1)(c1ccccc1)[C@H](C)CN(C)C :: 0.769
4. Clc1ccccc1 :: 1.61
5. CN1CCN(C2=Nc3cc(Cl)ccc3Nc3ccccc32)CC1 :: 1.725
6. c1ccc2nc3ccccc3cc2c1 :: 1.447
7. CN(C)CCC(c1ccc(Cl)cc1)c1ccccn1 (configuration not stated) :: 0.074

====

Measured Quantity: Log k'

1) CN1CCC(=C2c3ccccc3C=Cc3ccccc32)CC1 :: 1.984
2) CN(C)CCC=C1c2ccccc2COc2ccccc21 [DOXEPIN] :: 1.086
3) CN(C)CCCN1c2ccccc2Sc2ccccc21 :: 1.345
4) CN(C)CCCN1c2ccccc2CCc2ccccc21 :: 1.227
5) O=C(NC1CCN(CCc2c[nH]c3ccccc23)CC1)c1ccccc1 :: 1.028

====

Measured Quantity: Log k'

1. COc1ccccc1N1CCN(CCCC(=O)c2ccc(F)cc2)CC1 :: 1.64
2. CN(C)CCC(c1ccc(Cl)cc1)c1ccccn1 (stereo not given) :: 0.262
3. CC(=O)c1ccc2c(c1)N(CCCN1CCN(CCO)CC1)c1ccccc1S2 :: 1.301
4. CN1CCN(CCCN2c3ccccc3Sc3ccc(Cl)cc32)CC1 :: 2.767
5. c1ccc2nc3ccccc3cc2c1 :: 2.103
6. CCC(=O)O[C@](Cc1ccccc1)(c1ccccc1)[C@H](C)CN(C)C :: 1.259
7. Clc1ccccc1 :: 1.61
8. CN1CCN(C2=Nc3cc(Cl)ccc3Nc3ccccc32)CC1 :: 1.73
9. Cc1cccc(C)c1NC(=O)C1CCCCN1C (stereo not given) [MEPIVACAINE] :: 0.008
10. OCCN1CCN(CCCN2c3ccccc3Sc3ccc(Cl)cc32)CC1 :: 2.287

====

Assay: physchem
Settings: octanol/water
Description: Partition coefficient (logD) (HPLC)
Measured Quantity: logD

1) CC(=O)c1ccc2c(c1)N(CCCN1CCN(CCO)CC1)c1ccccc1S2 [ACETOPHENAZINE] :: 0.366

====

Reported Log k' values follow for various molecules
Measured Quantity: Log k'

1) Clc1ccccc1 [CHLOROBENZENE] :: 1.022
2) CN(C)CCC(c1ccc(Cl)cc1)c1ccccn1 (stereo unspecified) [CHLORPHENIRAMINE] :: -0.329
3) CN(C)CCCN1c2ccccc2CCc2ccc(Cl)cc21 [CLOMIPRAMINE] :: 1.041
4) COc1ccccc1 [ANISOLE] :: 0.381
5) CCC(=O)O[C@](Cc1ccccc1)(c1ccccc1)[C@H](C)CN(C)C [PROPOXYPHENE] :: 0.483
6) CN(C)CCC=C1c2ccccc2CCc2ccccc21 [AMITRIPTYLINE] :: 1.264
7) Cc1cccc(C)c1NC(=O)C1CCCCN1C (stereo unspecified) [MEPIVACAINE] :: -0.492
8) c1ccc2nc3ccccc3cc2c1 [ACRIDINE] :: 0.685
9) COc1ccccc1N1CCN(CCCC(=O)c2ccc(F)cc2)CC1 [FLUANISONE] :: 1.063
10) CCCCOc1cc(C(=O)NCCN(CC)CC)c2ccccc2n1 [DIBUCAINE] :: 0.501
11) CN1CCN(CCCN2c3ccccc3Sc3ccc(Cl)cc32)CC1 [PROCHLORPERAZINE] :: 1.571
